Each entry below carries its recorded Papp A→B at 180 min.
MEASUREMENT_NOTES: Caco-2 membrane permeability, improved method as used in the following Examples (96-well, 20 to 24 h preincubation)
Type: in vitro ADME
STUDY_CONDITIONS: human, Caco-2, Caco-2
Positions of bridges follow the written chain, without caps; N, C: chain ends. Non-standard residues stand in square brackets, D forms with d. Residues, ends and D or L forms follow the SMILES beside them. ξ: configuration not given here. *: point of attachment. Glu(NHSO2Me) = CS(=O)(=O)NC(=O)CC[C@H](N)C(=O)O; NMePhe(3-Cl) = CN[C@@H](Cc1cccc(Cl)c1)C(=O)O; hPhe(4-Cl) = N[C@@H](CCc1ccc(Cl)cc1)C(=O)O; hNle(7,7-F2) = N[C@@H](CCCCC(F)F)C(=O)O; Hyp = O=C(O)[C@@H]1C[C@@H](O)CN1; NMeF = CN[C@@H](Cc1ccccc1)C(=O)O; ξThr(3R) = C[C@@H](O)C(N)C(=O)O; NMeD = CN[C@@H](CC(=O)O)C(=O)O; NMeL = CN[C@@H](CC(C)C)C(=O)O; NMeV = CN[C@H](C(=O)O)C(C)C; NMeAbu = CC[C@H](NC)C(=O)O; NMeA = CN[C@@H](C)C(=O)O; Piperidide = C1CCN(*)CC1; NBuGly = CCCCNCC(=O)O; Isopentyl = CC(C)CC*; Sar = CNCC(=O)O; tBu = CC(C)(C)*

1) CC(C)C[C@@H]1NC(=O)[C@H](CC(C)C)N(C)C(=O)CN(C)C(=O)[C@H]([C@@H](C)O)NC(=O)[C@H](CC(C)C)N(C)C(=O)[C@H](CCc2ccc(Cl)cc2)NC(=O)[C@H](C)N(C)C(=O)[C@@H](C(C)C)NC(=O)C[C@@H](C(=O)N2CCCCC2)NC(=O)[C@H](C(C)C)N(C)C(=O)[C@H](Cc2ccccc2)N(C)C1=O [pd360] ([dV][NMeA][hPhe(4-Cl)][NMeL]T[Sar][NMeL]L[NMeF][NMeV]D-Piperidide; lactam N-11)	1.6 ×10⁻⁶ cm/s

Query (compound): CCCCN1CC(=O)N(C)[C@@H](CC(C)C)C(=O)N[C@H](C(=O)N2CCCCC2)CC(=O)N(C)[C@@H](CC(C)C)C(=O)N[C@@H](CC(C)C)C(=O)N(C)[C@@H](CC)C(=O)N(C)[C@@H](Cc2ccccc2)C(=O)N[C@@H](CCC(=O)NS(C)(=O)=O)C(=O)N(C)[C@@H](Cc2cccc(Cl)c2)C(=O)N(C)[C@@H](CC(C)C)C(=O)NC([C@@H](C)O)C1=O (stereo partly drawn) [pd64] ([NMeL]L[NMeAbu][NMeF][Glu(NHSO2Me)][NMePhe(3-Cl)][NMeL][ξThr(3R)][NBuGly][NMeL]D-Piperidide; lactam N-11) ; field requested: Papp A→B at 180 min
0.15 ×10⁻⁶ cm/s

Try this compound next: CC(C)CCOC[C@@H]1NC(=O)[C@H](CC(C)C)N(C)C(=O)[C@H](Cc2ccccc2)N(C)C(=O)CN(C)C(=O)[C@H]([C@@H](C)O)NC(=O)[C@H](CC(C)C)N(C)C(=O)[C@H](CCCCC(F)F)NC(=O)[C@H](Cc2ccccc2)N(C)C(=O)CN(C)C(=O)C[C@@H](C(=O)N2CCCCC2)NC(=O)[C@H](CC(C)C)N(C)C1=O [pd338] ([Sar][NMeF][hNle(7,7-F2)][NMeL]T[Sar][NMeF][NMeL]S(Isopentyl)[NMeL]D-Piperidide; lactam N-11)
1.8 ×10⁻⁶ cm/s

Please answer likewise for CCO[C@@H]1C[C@H]2C(=O)N(C)[C@@H](CC(C)C)C(=O)N[C@@H]([C@@H](C)O)C(=O)N(C)[C@@H](Cc3ccccc3)C(=O)N[C@@H](Cc3ccccc3)C(=O)N(C)[C@@H](CC(C)C)C(=O)N(C)[C@H](C(=O)N3CCCCC3)CC(=O)N[C@@H](C)C(=O)N(C)[C@@H](C(C)C)C(=O)N[C@@H](COC(C)(C)C)C(=O)N(C)[C@@H](CC(C)C)C(=O)N2C1 [pd373] (A[NMeV]S(tBu)[NMeL][Hyp](Et)[NMeL]T[NMeF]F[NMeL][NMeD]-Piperidide; lactam N-11)
2 ×10⁻⁶ cm/s
